- Tested on: CipR MRSA OC4159
- procedure_details: Resistant strains assay (broth microdilution MIC)
- Assay type: cell-based
- experimental_setup: Staphylococcus aureus, read-out: MIC, Column F
Catalogue of MIC values
Use µg/mL as the unit, but write only the number.

These solved cases illustrate the format of a correct answer.
> print(dat)
                                   molecule               tgt  obs.value
1  COc1ccc2nccc(-n3cc4c(n3)CCC(NC(=O)c3cc5c(cc3F)SCC(=O)N5)C4)c2c1 (stereo not drawn)  CipR MRSA OC4159      0.031
2  COc1ccc2nccc(-n3cc4c(n3)CCC(NC(=O)c3ccc5c(c3)NC(=O)CS5)C4)c2n1 (stereo not drawn)  CipR MRSA OC4159        0.5

The record that follows has no MIC shown yet.
Request: MIC, test system CipR MRSA OC4159, entry COc1ccc2nccc(-n3cc4c(n3)CCC(NC/C=C/c3ccccc3)C4)c2c1 (stereo not drawn) 0.5

* * *

- tgt: E. coli DNA gyrase (Escherichia coli, UniProt P0AES4+P0AES6)
- Construct: purchased John Innes Enterprises Ltd. (John Innes Centre, UK)
- procedure_details: DNA gyrase inhibition assay (supercoiling)
- Type: biochemical
- experimental_setup: E. coli DNA gyrase supercoiling, visual inspection of gels; read-out: DNA Gyrase IC50 (converted)
Catalogue of IC50 values

Request: IC50, test system E. coli DNA gyrase (Escherichia coli, UniProt P0AES4+P0AES6), entry COc1ccc2nccc(-n3cc4c(n3)CCC(NC(=O)c3cc5ccccc5[nH]3)C4)c2c1 (centres unmarked) > 36.6 µM

Request: IC50, test system E. coli DNA gyrase (Escherichia coli, UniProt P0AES4+P0AES6), entry COc1ccc2nccc(-n3cc4c(n3)CCC(NC(=O)/C=C/c3ccc(Cl)c(Cl)c3)C4)c2n1 (centres unmarked) > 32.4 µM

* * *

- tgt: E. coli DNA gyrase (Escherichia coli, UniProt P0AES4+P0AES6)
- Construct: purchased John Innes Enterprises Ltd. (John Innes Centre, UK)
- procedure_details: DNA gyrase inhibition assay (supercoiling)
- Format: biochemical
- experimental_setup: E. coli DNA gyrase supercoiling, visual inspection of gels; read-out: DNA Gyrase IC50 (converted)
Catalogue of IC50 values

These solved cases illustrate the format of a correct answer.
> print(dat)
                                   compound  obs.value
1  COc1ccc2nccc(-n3cc4c(n3)CCC(NCCCc3ccc(Cl)c(Cl)c3)C4)c2n1 (stereo not drawn)  > 66.3 µM
2  COc1ccc2nccc(-n3cc4c(n3)CCC(NC(=O)c3ccc(C(C)=O)s3)C4)c2c1 (stereo not drawn)  > 35.8 µM
3  COc1ccc2nccc(-n3cc4c(n3)CCC(NC(=O)/C=C/c3ccccn3)C4)c2n1 (stereo not drawn)  > 37.5 µM
4  O=C1CSc2ccc(C(=O)NC3CCc4c(cnn4-c4cc(C(F)(F)F)nc5ccccc45)C3)cc2N1 (stereo not drawn)  > 30.6 µM
5  COc1ccc2nccc(-n3ncc4c3CCC(NC(=O)c3cc5c(cc3F)SCC(=O)N5)C4)c2c1 (stereo not drawn)  > 63.5 µM

Can you share its IC50? I mean this compound: COc1ccc2nccc(-n3cc4c(n3)CCC(NC(=O)/C=C/c3ccc(Cl)cc3)C4)c2n1 (stereo not drawn) > 34.8 µM

Can you share its IC50? I mean this compound: COc1ccc2nccc(-n3cc4c(n3)CCC(NC(=O)c3ccc5c(c3)OCCN5C)C4)c2c1 (stereo not drawn) > 34.1 µM

Can you share its IC50? I mean this compound: COc1ccc2nccc(-n3cc4c(n3)CCC(NC(=O)c3cc5cc(Cl)ccc5[nH]3)C4)c2c1 (stereo not drawn) > 33.9 µM

Can you share its IC50? I mean this compound: COc1ccc2nccc(-n3cc4c(n3)CCC(NC(=O)C(=O)c3cc5ccccc5[nH]3)C4)c2c1 (stereo not drawn) > 34.4 µM
